# conditionNotes: in isobutyl acetate, 303.15 K
observedProperty: solubility (mole fraction)
Give bare numbers.

Q: Specify solubility (mole fraction) for CC(C)(C)C(O)/C(=C\c1ccc(Cl)cc1)n1cncn1 (stereo unspecified) and stop.
A: 0.0199

###

# conditionNotes: in ethyl acetate, 278.15 K
observedProperty: solubility (mole fraction)
One number for each entry.

Q: Specify solubility (mole fraction) for CC(C)(C)C(O)/C(=C\c1ccc(Cl)cc1)n1cncn1 (stereo unspecified) and stop.
A: 0.0106

###

# conditionNotes: in ethyl acetate, 303.15 K
observedProperty: solubility (mole fraction)

Q: Specify solubility (mole fraction) for CC(C)(C)C(O)/C(=C\c1ccc(Cl)cc1)n1cncn1 (stereo unspecified) and stop.
A: 0.0201

###

# conditionNotes: in n-octanol, 323.15 K
observedProperty: solubility (mole fraction)
Numbers only.

Q: Specify solubility (mole fraction) for CC(C)(C)C(O)/C(=C\c1ccc(Cl)cc1)n1cncn1 (stereo unspecified) and stop.
A: 0.0511

###

# conditionNotes: in n-butanol, 283.15 K
observedProperty: solubility (mole fraction)

Q: Specify solubility (mole fraction) for CC(C)(C)C(O)/C(=C\c1ccc(Cl)cc1)n1cncn1 (stereo unspecified) and stop.
A: 0.0171

###

# conditionNotes: in n-propanol, 283.15 K
observedProperty: solubility (mole fraction)
Give bare numbers.

Q: Specify solubility (mole fraction) for CC(C)(C)C(O)/C(=C\c1ccc(Cl)cc1)n1cncn1 (stereo unspecified) and stop.
A: 0.0163

###

# conditionNotes: in n-propyl acetate, 308.15 K
observedProperty: solubility (mole fraction)
Give bare numbers.

Q: Specify solubility (mole fraction) for CC(C)(C)C(O)/C(=C\c1ccc(Cl)cc1)n1cncn1 (stereo unspecified) and stop.
A: 0.0362

###

# conditionNotes: in isopropanol, 278.15 K
observedProperty: solubility (mole fraction)
Answers are plain numbers.

Q: Specify solubility (mole fraction) for CC(C)(C)C(O)/C(=C\c1ccc(Cl)cc1)n1cncn1 (stereo unspecified) and stop.
A: 0.0112

###

# conditionNotes: in isobutanol, 298.15 K
observedProperty: solubility (mole fraction)
One number for each entry.

Q: Specify solubility (mole fraction) for CC(C)(C)C(O)/C(=C\c1ccc(Cl)cc1)n1cncn1 (stereo unspecified) and stop.
A: 0.0225

###

# conditionNotes: in n-butyl acetate, 303.15 K
observedProperty: solubility (mole fraction)
Numbers only.

Q: Specify solubility (mole fraction) for CC(C)(C)C(O)/C(=C\c1ccc(Cl)cc1)n1cncn1 (stereo unspecified) and stop.
A: 0.0247

###

# conditionNotes: in n-butanol, 313.15 K
observedProperty: solubility (mole fraction)

Q: Specify solubility (mole fraction) for CC(C)(C)C(O)/C(=C\c1ccc(Cl)cc1)n1cncn1 (stereo unspecified) and stop.
A: 0.0406

###

# conditionNotes: in isobutyl acetate, 288.15 K
observedProperty: solubility (mole fraction)
Numbers only.

Q: Specify solubility (mole fraction) for CC(C)(C)C(O)/C(=C\c1ccc(Cl)cc1)n1cncn1 (stereo unspecified) and stop.
A: 0.0116

###

# conditionNotes: in methyl acetate, 323.15 K
observedProperty: solubility (mole fraction)
Answers are plain numbers.

Q: Specify solubility (mole fraction) for CC(C)(C)C(O)/C(=C\c1ccc(Cl)cc1)n1cncn1 (stereo unspecified) and stop.
A: 0.0383

###

# conditionNotes: in n-octanol, 278.15 K
observedProperty: solubility (mole fraction)
One number for each entry.

Q: Specify solubility (mole fraction) for CC(C)(C)C(O)/C(=C\c1ccc(Cl)cc1)n1cncn1 (stereo unspecified) and stop.
A: 0.0159
